# System: CAL-148
# Method Notes: normalised response (% of control), CellTox Green; higher = less cell death (100 = DMSO, 0 = benzethonium chloride kill control)
# Stated Conditions: incubation time: 72 h
Measured Property: normalised response (%)
Expressed in %, but write only the number.

- Compound: "N#Cc1ccc(C(c2ccc(C#N)cc2)n2cncn2)cc1 [Letrozole] (1000 nM)"
  Recorded Number: 101
- Compound: "O=C(O)CCCCC(CCSCc1ccccc1)SCc1ccccc1 (stereo not given) [CPI-613] (10000 nM)"
  Recorded Number: 99.7
- Compound: "CCCS(=O)(=O)Nc1ccc(F)c(C(=O)c2c[nH]c3ncc(-c4ccc(Cl)cc4)cc23)c1F [Vemurafenib] (100 nM)"
  Recorded Number: 97.3

Summary: Cc1ccc(-c2cc(C(F)(F)F)nn2-c2ccc(S(N)(=O)=O)cc2)cc1 [Celecoxib] (100 nM) , CAL-148, normalised response = 95.4

Summary: Nc1ncn([C@H]2C[C@H](O)[C@@H](CO)O2)c(=O)n1 [Decitabine] (1000 nM) , CAL-148, normalised response = 103

* * *

# Tested on: MDA-MB-436
# Method Notes: normalised response (% of control), CellTox Green; higher = less cell death (100 = DMSO, 0 = benzethonium chloride kill control)
# Stated Conditions: incubation time: 72 h
Measured Property: normalised response (%)
Expressed in %, but write only the number.

Before answering, review these 5 worked examples.
- Molecule: "COc1cc([C@@H]2c3cc4c(cc3[C@@H](O[C@@H]3O[C@@H]5CO[C@@H](c6cccs6)O[C@H]5[C@H](O)[C@H]3O)[C@H]3COC(=O)[C@H]23)OCO4)cc(OC)c1O [Teniposide] (10000 nM)"
  Recorded Number: 80.5
- Molecule: "CCc1cncnc1N1CCN(Cc2nc3ccc(C(F)(F)F)cc3[nH]2)CC1 (100 nM)"
  Recorded Number: 99.8
- Molecule: "CNC(=O)c1cc(Oc2ccc(NC(=O)Nc3cc(C(C)(C)C)nn3-c3ccc4ncccc4c3)c(F)c2)ccn1 [Rebastinib] (100 nM)"
  Recorded Number: 97.3
- Molecule: "CC(=O)Nc1cccc(-n2c(=O)n(C3CC3)c(=O)c3c(Nc4ccc(I)cc4F)n(C)c(=O)c(C)c32)c1 [Trametinib] (25 nM)"
  Recorded Number: 97.2
- Molecule: "O=C(O)CCCCC(CCSCc1ccccc1)SCc1ccccc1 (stereo unspecified) [CPI-613] (1000 nM)"
  Recorded Number: 81.4

Record CC[C@H](C)C(=O)O[C@H]1C[C@H](O)C=C2C=C[C@H](C)[C@H](CC[C@@H](O)C[C@@H](O)CC(=O)O)[C@H]21 [Pravastatin] (100 nM) , field normalised response: -74.8

* * *

# System: HCC1599
# Method Notes: normalised response (% of control), CellTiter-Glo; higher = more viable cells (100 = DMSO, 0 = benzethonium chloride kill control)
# Stated Conditions: incubation time: 72 h
Kind request: treat 80% as inclusive, so normalised response at 80% or higher is true (1), anything lower is false (0).

Example entries begin here.
- Molecule: "N#Cc1ccc(C(c2ccc(C#N)cc2)n2cncn2)cc1 [Letrozole] (1000 nM)"
  Tested System: "HCC1599"
  Assigned Class: "true (1)"
- Molecule: "O=C(O)C(=O)O.[NH-][C@@H]1CCCC[C@H]1[NH-].[Pt+2] [Oxaliplatin] (1 nM)"
  Tested System: "HCC1599"
  Assigned Class: "true (1)"

Reported normalised response at or above 80%? COc1cc([C@@H]2c3cc4c(cc3[C@@H](O[C@@H]3O[C@@H]5CO[C@@H](c6cccs6)O[C@H]5[C@H](O)[C@H]3O)[C@H]3COC(=O)[C@H]23)OCO4)cc(OC)c1O [Teniposide] (1000 nM)
false (0)

Reported normalised response at or above 80%? CCc1cncnc1N1CCN(Cc2nc3ccc(C(F)(F)F)cc3[nH]2)CC1 (1000 nM)
true (1)

Reported normalised response at or above 80%? CC[C@@H]1C(=O)N(C)c2cnc(Nc3ccc(C(=O)NC4CCN(C)CC4)cc3OC)nc2N1C1CCCC1 [BI 2536] (100 nM)
false (0)

Reported normalised response at or above 80%? CC1=C(/C=C/C(C)=C/C=C/C(C)=C/C(=O)O)C(C)(C)CCC1 [Tretinoin] (1 nM)
true (1)

Reported normalised response at or above 80%? Nc1ccccc1NC(=O)c1ccc(CNC(=O)OCc2cccnc2)cc1 [Entinostat] (1000 nM)
true (1)

Reported normalised response at or above 80%? CC(=O)Nc1cccc(-n2c(=O)n(C3CC3)c(=O)c3c(Nc4ccc(I)cc4F)n(C)c(=O)c(C)c32)c1 [Trametinib] (25 nM)
true (1)

Reported normalised response at or above 80%? C=CC(=O)N1CCC[C@@H](n2nc(-c3ccc(Oc4ccccc4)cc3)c3c(N)ncnc32)C1 [Ibrutinib] (100 nM)
true (1)

* * *

# Tested on: MDA-MB-231
# Method Notes: normalised viability (% of control), CellTiter-Blue; higher = more viable cells (about 100 = DMSO control)
# Stated Conditions: 100 nM; incubation time: 72 h
Quick list: normalised viability per entry.
In your response, put the unit directly after the numeric value.

- Compound: "CC[C@H](Nc1ncnc2[nH]cnc12)c1nc2cccc(F)c2c(=O)n1-c1ccccc1 [CAL-101]"
  normalised viability: "80.9%"

Record CCCS(=O)(=O)Nc1ccc(F)c(C(=O)c2c[nH]c3ncc(-c4ccc(Cl)cc4)cc23)c1F [Vemurafenib] , field normalised viability: 94.6%

Record Cc1ccc(-c2cc(C(F)(F)F)nn2-c2ccc(S(N)(=O)=O)cc2)cc1 [Celecoxib] , field normalised viability: 89%

Record "CCc1cncnc1N1CCN(Cc2nc3ccc(C(F)(F)F)cc3[nH]2)CC1" , field normalised viability: 91.6%

* * *

# System: MFM-223
# Method Notes: normalised viability (% of control), CellTiter-Blue; higher = more viable cells (100 = DMSO, 0 = benzethonium chloride kill control)
# Stated Conditions: 1 nM; incubation time: 72 h
Measured Property: normalised viability (%)
Expressed in %, but write only the number.

- Molecule: "O=C(O)C(=O)O.[NH-][C@@H]1CCCC[C@H]1[NH-].[Pt+2]"
  Recorded Number: 97.1
- Molecule: "COc1cc([C@@H]2c3cc4c(cc3[C@@H](O[C@@H]3O[C@@H]5CO[C@@H](c6cccs6)O[C@H]5[C@H](O)[C@H]3O)[C@H]3COC(=O)[C@H]23)OCO4)cc(OC)c1O [Teniposide]"
  Recorded Number: 92.1
- Molecule: "N#Cc1ccc(C(c2ccc(C#N)cc2)n2cncn2)cc1"
  Recorded Number: 49.6
- Molecule: "Oc1ncc(N(CCCl)CCCl)c(O)n1"
  Recorded Number: 97.4

Record "Cc1ccc(-c2cc(C(F)(F)F)nn2-c2ccc(S(N)(=O)=O)cc2)cc1" , field normalised viability: 98.5

Record "Nc1ccccc1NC(=O)c1ccc(CNC(=O)OCc2cccnc2)cc1" , field normalised viability: 98.7

Record "O=C(Cc1ccc(-c2ccc(OCCN3CCOCC3)cc2)cn1)NCc1ccccc1" , field normalised viability: 91.7

Record "Nc1nc2[nH]cc(CCc3ccc(C(=O)N[C@@H](CCC(=O)O)C(=O)O)cc3)c2c(=O)[nH]1" , field normalised viability: 93.1

Record "CC1=C(/C=C/C(C)=C/C=C/C(C)=C/C(=O)O)C(C)(C)CCC1" , field normalised viability: 98

* * *

# Test system: DU-4475
# Method Notes: normalised response (% of control), CellTox Green; higher = less cell death (100 = DMSO, 0 = benzethonium chloride kill control)
# Stated Conditions: incubation time: 72 h
Quick list: normalised response per entry.
Expressed in %, but write only the number.

Before answering, review these 5 worked examples.
- Compound: "COc1cc2nccc(Oc3ccc(NC(=O)Nc4cc(C)on4)c(Cl)c3)c2cc1OC [Tivozanib] (10000 nM)"
  normalised response (%): 98
- Compound: "C=CC(=O)Nc1cc2c(Nc3ccc(F)c(Cl)c3)ncnc2cc1OCCCN1CCOCC1 [Canertinib] (10000 nM)"
  normalised response (%): 89.5
- Compound: "O=C(O)C(=O)O.[NH-][C@@H]1CCCC[C@H]1[NH-].[Pt+2] [Oxaliplatin] (100 nM)"
  normalised response (%): 96.8
- Compound: "Cc1ccc(-c2cc(C(F)(F)F)nn2-c2ccc(S(N)(=O)=O)cc2)cc1 [Celecoxib] (100 nM)"
  normalised response (%): 101
- Compound: "C[C@H]1C[C@@H]2[C@H]([C@@H](O)C[C@@]3(C)[C@H]2CC[C@]3(O)C(=O)CO)[C@@]2(C)C=CC(=O)C=C12 [Methylprednisolone] (100 nM)"
  normalised response (%): 102

Record Nc1ncn([C@H]2C[C@H](O)[C@@H](CO)O2)c(=O)n1 [Decitabine] (100 nM) , field normalised response: 97.5

Record O=C(O)CCCCC(CCSCc1ccccc1)SCc1ccccc1 (configuration not stated) [CPI-613] (100 nM) , field normalised response: 101
